# Experimental system: Scl-70抗原 (人DNA拓扑异构酶I的C末端片段的70kD分子量蛋白) (human) (UniProt P11387)
# Assay text: chemiluminescence immunoassay on Scl-70-coated magnetic microspheres, ABEI-anti-human IgG; CHO supernatant undiluted
Experimental readout: 原液RLU (RLU)
The answer is to be given in RLU; state only the numeric part.

Record excerpt, results attached:
Binder	Data value
抗体4 (实施例14) (antibody, human IgG1, kappa, V domains shown) VH: EVKLVESGGGLVQPGGSRKLSCAASGFTFSSYWMHWVRQAPEKGLEWVAYISSGGITIYYADTVKGRFTISRDNPENTLFLQMTSLTSEDTAIYYCARRAAYGNYDWYFDVWGAGTTVTVSS VL: NIVMTQSPSSLVVSAGEKVTLSCKSSQSLLYSSNQKNYLAWFQQKPGQSPKLLIYWASTRESGVPDRFTGSGSRTDFTLTISSVQAEDMAVYYCHQYIYLWSFGGGSKLEIER	2.46e+06
抗体6 (实施例16) (antibody, human IgG1, kappa, V domains shown) VH: EVKLVESGGGLVQPGGSRKLSCAASGFTFSSYWMHWVRQAPEKGLEWVANINPGDGRTNYDENFKNRFTISRDNPENTLFLQMTSLTSEDTAIYYCARRAAYGNYDWYFDVWGAGTTVTVSS VL: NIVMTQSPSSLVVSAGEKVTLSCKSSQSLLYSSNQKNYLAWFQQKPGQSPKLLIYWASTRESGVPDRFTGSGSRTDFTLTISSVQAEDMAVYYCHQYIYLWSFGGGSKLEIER	1.08e+06
抗体1 (实施例11; 2D6抗体) (antibody, human IgG1, kappa, V domains shown) VH: EIQLVQSGSEVVRTGTSVKLSCKASGYRFTSYWMHWVKQRPGQGLEWIGNINPGDGRTNYDENFKNKATLTVDPSSNTAYMQLNSLTSEDSAVYYCTRDGNYGIFDYWGRGTSVTVSS VL: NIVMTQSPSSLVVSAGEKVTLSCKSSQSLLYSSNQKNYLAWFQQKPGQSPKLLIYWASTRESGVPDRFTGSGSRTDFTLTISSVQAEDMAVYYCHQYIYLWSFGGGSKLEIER	1.64e+06

Okay, next one:
Provide one value: measured 原液RLU of 抗体5 (实施例15) (antibody, human IgG1, kappa, V domains shown) VH: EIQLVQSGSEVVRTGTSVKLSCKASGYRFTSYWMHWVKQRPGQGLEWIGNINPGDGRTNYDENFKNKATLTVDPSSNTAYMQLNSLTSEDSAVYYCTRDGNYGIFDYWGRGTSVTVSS VL: DIELTQSPSSLVVSAGEKVTLSCKSSQSLLYSSNQKNYLAWFQQKPGQSPKLLIYWASTRGSGVPDRFTGSGSRTDFTLTISSVQAEDMAVYYCHQYIYLWSFGGGTKLEIKR
2e+06
